TGI listing for selected compounds.
test system: MCF7 breast; assay: NCI tumour cell line growth inhibition, 48 h
measured parameter: TGI

In [3]: df
Out[3]:
                                   compound       target  measured_parameter    result
0  O=C(O)C1CCCCC1C(=O)Nc1nc2ccccc2[nH]1 (centres undefined)  MCF7 breast                 TGI  > 100 µM
1  O=[N+]([O-])c1ccc(NN=C2c3ccccc3Cc3ccccc32)c([N+](=O)[O-])c1  MCF7 breast                 TGI  > 100 µM
2  CCc1cccc(CC)c1NC(=O)c1ccn2c1CCc1cnc(Nc3ccc(N4CCN(C)CC4)cc3OC)nc1-2  MCF7 breast                 TGI   7.55 µM
3  Cc1cn(CCCCOC(=O)NC(CCCNC(N)=O)C(=O)O)c(=O)[nH]c1=O (centres undefined)  MCF7 breast                 TGI  > 100 µM

Numbers sourced from PubChem BioAssay (NCI).
